test_target: KRAS-G12D protein (Homo sapiens, UniProt P01116, G12D)
Sequence (P01116 1-188 isoform P01116-2 G12D): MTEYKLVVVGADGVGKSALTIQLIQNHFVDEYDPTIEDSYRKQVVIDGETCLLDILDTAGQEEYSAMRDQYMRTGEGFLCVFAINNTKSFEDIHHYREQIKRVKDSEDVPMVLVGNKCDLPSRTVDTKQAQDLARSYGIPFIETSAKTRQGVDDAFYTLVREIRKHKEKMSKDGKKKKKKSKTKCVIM
test: SOS-mediated nucleotide exchange assay (BODIPY-GDP / Tb-streptavidin TR-FRET)
Assay type: biochemical
*1 amine or outer side, *2 acyl side, *3 side chain or, on linkers, in order; H or OH if unused. Where a SMILES comes first, the peptide text is derived from it. Bridges are numbered along the chain shown (N, C = ends). [ ]: non-standard residue; d: D form. Ala(pyrimidin-5-yl) = N[C@@H](Cc1cncnc1)C(=O)O; NMe3Pal(6-Me) = CN[C@@H](Cc1ccc(C)nc1)C(=O)O; NMePhe(3-Me) = CN[C@@H](Cc1cccc(C)c1)C(=O)O; X10 = CS(=O)(=O)CCCCN(CC(=O)[*:2])[*:1]; X15 = O=C([C@H](Cc1cnccc1F)N[*:1])[*:2]; Phe(2-F) = N[C@@H](Cc1ccccc1F)C(=O)O; NMe3Pal = CN[C@@H](Cc1cccnc1)C(=O)O; X1 = O=C(C12CC(CN[*:1])(C1)C2)[*:2]; NMeOrn(Me) = CNCCC[C@H](NC)C(=O)O; Ala(cPr) = N[C@@H](CC1CC1)C(=O)O; NMeF = CN[C@@H](Cc1ccccc1)C(=O)O; PhLac = O=C(O)[C@@H](O)Cc1ccccc1; 3Pal = N[C@@H](Cc1cccnc1)C(=O)O; Ahp(2) = CCCCC[C@H](N)C(=O)O; Cba = N[C@@H](CC1CCC1)C(=O)O; hLeu = CC(C)CC[C@H](N)C(=O)O; hLys = NCCCCC[C@H](N)C(=O)O; αMeC = C[C@](N)(CS)C(=O)O; NMeA = CN[C@@H](C)C(=O)O; Nle = CCCC[C@H](N)C(=O)O
property: EC50 (µM)

compound: CCCC[C@@H]1NC(=O)[C@H](Cc2ccc(C(F)(F)F)nc2)NC(=O)[C@H](CCCn2ccnc2)N(C)C(=O)[C@H](Cc2ccccc2)OC(=O)C23CC(CNC(=O)[C@H](Cc4ccccc4)N(C)C(=O)[C@H](CCCC)NC(=O)[C@H](Cc4ccccc4F)NC1=O)(C2)C3 (single isomer, unassigned) [compound 218]
test_result: 0.188
//
compound: CCCC[C@@H]1NC(=O)[C@H](Cc2cccnc2)NC(=O)CN(CCCCS(C)(=O)=O)C(=O)[C@H](Cc2ccccc2)OC(=O)C23CC(CNC(=O)[C@H](Cc4cccnc4)N(C)C(=O)[C@H](CCCC)NC(=O)[C@H](Cc4ccccc4F)NC1=O)(C2)C3 [compound 407] (cyclo([3Pal][Nle][Phe(2-F)][Nle][NMe3Pal][X1][PhLac][X10]))
test_result: 0.367
//
compound: CCCCC[C@@H]1NC(=O)[C@H](Cc2ccc(OC)cc2)NC(=O)[C@H](CC2CCC2)NC(=O)[C@H](Cc2cncnc2)NC(=O)[C@H](CCCNC)N(C)C(=O)[C@H](Cc2ccccc2)NC(=O)CSC[C@@](C)(C(N)=O)NC(=O)[C@H](Cc2ccc(C)nc2)N(C)C1=O [compound 394] ({CH2CO}-F[NMeOrn(Me)][Ala(pyrimidin-5-yl)][Cba]Y(Me)[Ahp(2)][NMe3Pal(6-Me)][αMeC]-NH2; thioether N-8)
test_result: 0.0658
//
compound: CCCCC[C@@H]1NC(=O)[C@H](Cc2ccc(OC)cc2)NC(=O)[C@H](CC2CCC2)NC(=O)[C@H](CCCCCN)NC(=O)[C@H](CCCNC(=N)N)NC(=O)[C@H](Cc2ccccc2)NC(=O)CSC[C@@](C)(C(N)=O)NC(=O)[C@H](Cc2ccccc2)N(C)C1=O [compound 348] ({CH2CO}-FR[hLys][Cba]Y(Me)[Ahp(2)][NMeF][αMeC]-NH2; thioether N-8)
test_result: 0.0458
//
compound: Cc1cccc(C[C@H]2C(=O)NCC34CC(C3)(C4)C(=O)O[C@@H](Cc3ccccc3)C(=O)N(C)[C@@H](C)C(=O)N[C@@H](Cc3cncnc3)C(=O)N[C@@H](CC3CC3)C(=O)N[C@@H](Cc3cnccc3F)C(=O)N[C@@H](CCC(C)C)C(=O)N2C)c1 [compound 278] (cyclo([Ala(cPr)][X15][hLeu][NMePhe(3-Me)][X1][PhLac][NMeA][Ala(pyrimidin-5-yl)]))
test_result: 0.002
//
compound: CON=C1C[C@@H](Cc2ccccc2)C(=O)N(C)[C@@H](C)C(=O)N[C@@H](Cc2cncnc2)C(=O)N[C@@H](CC2CC2)C(=O)N[C@@H](Cc2ccccc2F)C(=O)N[C@@H](CCC(C)(F)F)C(=O)N(C)[C@@H](Cc2ccccc2)C(=O)NCC23CC1(C2)C3 (single isomer, unassigned) [compound 178]
test_result: 0.0017

Reference for the values: patent US20260001914A1
